# System: HCT-116 colon
# assay-remarks: NCI tumour cell line growth inhibition, 48 h
TGI values by entry

- compound: "O=S(=O)(O)c1ccc(Nc2ccnc3cc(Cl)ccc23)cc1"
  TGI: "> 100 µM"
- compound: "COc1cccc2ccc3c(c12)C(=O)OC31CCc2c(C)cccc21 (stereo not drawn)"
  TGI: "> 31.6 µM"
- compound: "Cc1cccc2c1C(=O)[C@@](C)([C@]1(C)Nc3cccc(C)c3C1=O)N2"
  TGI: "> 100 µM"

* * *

Some molecules, each annotated with its measured TGI.
# Tested on: UO-31 renal
# assay-remarks: NCI tumour cell line growth inhibition, 48 h
assay-readout: TGI

- molecule: "CC1(C)O[C@@H](CP(c2cccc3ccccc23)c2cccc3ccccc23)[C@H](CP(c2cccc3ccccc23)c2cccc3ccccc23)O1"
  measured: "> 100 µM"
- molecule: "O=C(O)Cc1cc(=O)[nH]c2c1C(=O)CCC2"
  measured: "> 100 µM"
- molecule: "O=C(O)CCCc1ccc2c(c1)CC1(C2)Cc2ccc(CCCC(=O)O)cc2C1"
  measured: "> 100 µM"
- molecule: "O=c1cccccc1NCCNc1cccccc1=O"
  measured: "> 100 µM"
- molecule: "c1ccc(COc2cccc3cccnc23)cc1"
  measured: "> 100 µM"
- molecule: "Cn1c(=O)c2[nH]c(CCC(=O)O)nc2n(C)c1=O"
  measured: "> 100 µM"
- molecule: "CC1(C)N=C(N)N=C(N)N1c1ccc(OCCCOc2ccccc2)c(Cl)c1"
  measured: "> 23.8 µM"
- molecule: "S=C(Nc1ccc2c(c1)Cc1ccccc1-2)Nc1ccc2c(c1)Cc1ccccc1-2"
  measured: "> 100 µM"
- molecule: "Cc1ccc(S(=O)(=O)c2ccsc2N)cc1"
  measured: "> 100 µM"
- molecule: "Oc1ccc2ccccc2c1OCc1nnc(CCCCCCCCc2nnc(COc3c(O)ccc4ccccc34)o2)o1"
  measured: "> 100 µM"
- molecule: "Cc1nc2sc(C(=O)Nc3cccc(Cl)c3C)c(N)c2cc1C(C)O (configuration not stated)"
  measured: "29.2 µM"
- molecule: "Cc1ccc(SCC(O)=C2C(=O)CCCC2=O)cc1"
  measured: "> 100 µM"
- molecule: "CCC1OC(/C(C)=C/C(C)/C=C/C2C(C)C2/C=C/C2OC(CC(=O)O)CC(O)C2O)CC=C1C (configuration not stated)"
  measured: "> 50 µM"
- molecule: "COc1ccc(NC(=S)NNC(=O)c2cc(-c3ccccc3)nc3ccccc23)cc1"
  measured: "26.3 µM"
- molecule: "C[n+]1c(-c2ccc(/C=N/Nc3ccnc(N/N=C/c4ccc(-c5cn6ccccc6[n+]5C)cc4)n3)cc2)cn2ccccc21"
  measured: "45.4 µM"
- molecule: "Cc1nn(-c2ccccn2)c2c1C(SC#N)=C(C=O)CC2"
  measured: "29.1 µM"
- molecule: "O=C(Nc1nc(C23CC4CC(CC(C4)C2)C3)cs1)c1cc2cc([N+](=O)[O-])ccc2oc1=O"
  measured: "> 100 µM"

* * *

# Test system: SNB-75 CNS
# assay-remarks: NCI tumour cell line growth inhibition, 48 h; in the data active means GI50 below about 0.43 µM; inactive means the rest
Possible outcomes: 1 (yes) (active), 0 (no) (inactive)

- molecule: "O=c1oc2cc(OS(=O)(=O)c3ccccc3)ccc2c2c1CCCCC2"
  group-label: "0 (no)"
- molecule: "Cc1cc(S(=O)(=O)Nc2nc3cc(-c4ccsc4)sc3c(=O)n2N)c(S)cc1Cl"
  group-label: "0 (no)"
- molecule: "COc1ccc(S(=O)(=O)n2c3ccccc3n3ncc(-c4nnc(C)o4)c23)cc1"
  group-label: "1 (yes)"
- molecule: "CN(C)c1ccc(N=C(C#N)c2nc(N)nc(N3CCN(c4ccccc4)CC3)n2)cc1"
  group-label: "0 (no)"
- molecule: "Cc1nc2sc(C(=O)Nc3cccc(Cl)c3C)c(N)c2cc1C(C)O (stereo not given)"
  group-label: "1 (yes)"
- molecule: "Cc1ccc2cnc(N)c(C#Cc3cncc(C(=O)Nc4ccc(CN5CCN(C)CC5)c(C(F)(F)F)c4)c3)c2c1"
  group-label: "0 (no)"
- molecule: "O=C(Nc1ccc(-c2ccnc(Nc3ccc(N4CCOCC4)cc3)n2)cc1)C1CCCN1 (stereo not given)"
  group-label: "0 (no)"
- molecule: "C(#Cc1ccccc1C#Cc1ccccn1)c1ccccn1"
  group-label: "0 (no)"
- molecule: "C#CCOc1cccc(Nc2ncc3ncn(C4CCN(C(=O)CCl)C4)c3n2)c1 (stereo not given)"
  group-label: "0 (no)"
- molecule: "CCCNc1cccc(-n2ncc3c(N/N=C/c4ccncc4)ncnc32)c1"
  group-label: "0 (no)"
